Recorded values, source ChEMBL document CHEMBL5325418.

biological target: UniProtKB P41145
Sequence (P41145 whole entry): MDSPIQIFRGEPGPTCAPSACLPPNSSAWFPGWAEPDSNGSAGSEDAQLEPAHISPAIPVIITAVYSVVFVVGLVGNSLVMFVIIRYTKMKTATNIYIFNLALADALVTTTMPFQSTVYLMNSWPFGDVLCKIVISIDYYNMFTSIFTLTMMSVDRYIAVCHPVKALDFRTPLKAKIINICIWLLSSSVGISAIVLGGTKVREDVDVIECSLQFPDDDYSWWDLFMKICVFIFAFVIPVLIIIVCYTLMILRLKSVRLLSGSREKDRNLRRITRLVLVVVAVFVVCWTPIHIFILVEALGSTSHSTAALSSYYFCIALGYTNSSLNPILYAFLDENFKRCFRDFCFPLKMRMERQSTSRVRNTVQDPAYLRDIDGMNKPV
pKi: −log10 of the molar value. Square brackets hold non-standard residues; d marks the D form. Peptide text beside a SMILES is read from it. * marks the point of attachment. ξ: configuration not given here. ξPhe(3-OMe) = COc1cccc(CC(N)C(=O)O)c1; ξPhe(2-I) = NC(Cc1ccccc1I)C(=O)O; Nphe = O=C(O)CNCc1ccccc1; Boc = CC(C)(C)OC(=O)*
Outcome: Condition met for pKi of at least 6; Condition not met for anything lower.

Task item: Please check the record COc1cccc(CC2NC(=O)CN(CC=C(C)C)C2=O)c1I (configuration not stated) and state if its pKi is at or above 6.
Reply: Condition not met

Task item: Please check the record COc1cccc(CC(NC(=O)CNCc2ccccc2)C(=O)O)c1I (configuration not stated) and state if its pKi is at or above 6.
Reply: Condition not met

Task item: Please check the record COc1cccc(CC2NC(=O)[C@H](CC(C)C)NC2=O)c1I (some centres not stated) and state if its pKi is at or above 6.
Reply: Condition not met

Task item: Please check the record CNCC(=O)NC(Cc1cccc(OC)c1I)C(=O)OC (configuration not stated) and state if its pKi is at or above 6.
Reply: Condition not met

Task item: Please check the record COC(=O)C(Cc1ccccc1I)NC(=O)CNCc1ccccc1 (configuration not stated) (H-[Nphe]-[ξPhe(2-I)]-OMe) and state if its pKi is at or above 6.
Reply: Condition not met

Task item: Please check the record COc1cccc(CC2NC(=O)CN(Cc3ccccc3)C2=O)c1C (configuration not stated) and state if its pKi is at or above 6.
Reply: Condition met

Task item: Please check the record COC(=O)C(Cc1ccccc1I)NC(=O)CN(Cc1ccccc1)C(=O)OC(C)(C)C (configuration not stated) (Boc-[Nphe]-[ξPhe(2-I)]-OMe) and state if its pKi is at or above 6.
Reply: Condition not met

Task item: Please check the record COC(=O)C(Cc1cccc(OC)c1)NC(=O)CN(Cc1ccccc1)C(=O)OC(C)(C)C (configuration not stated) (Boc-[Nphe]-[ξPhe(3-OMe)]-OMe) and state if its pKi is at or above 6.
Reply: Condition not met

Task item: Please check the record COC(=O)C(Cc1cccc(OC)c1C)NC(=O)CNCc1ccccc1 (configuration not stated) and state if its pKi is at or above 6.
Reply: Condition met

###

species on record: Homo sapiens; assay: Selectivity ratio of Ki for displacement of [3H]DADLE from human DOR expressed in CHO cell membranes to Ki for displacement of [3H]U69593 from human KOR expressed in HEK cell membranes
Provide the recorded Ratio Ki for the entries that follow.

Can you give me Ratio Ki for all of these, one by one?
1. COC(=O)C(Cc1cccc(C)c1I)NC(=O)CNCc1ccccc1 (stereo unspecified)
2. COC(=O)C(Cc1cccc(OC)c1I)NC(=O)CNCCc1ccccc1 (stereo unspecified)
3. COc1cccc(CC2NC(=O)CN(CCCc3ccccc3)C2=O)c1I (stereo unspecified)
4. COC(=O)C(Cc1cccc(OC)c1I)NC(=O)CNC(C)c1ccccc1 (stereo unspecified)
5. COc1cccc(CC2NC(=O)CN(Cc3ccccc3)C2=O)c1I (stereo unspecified)

Reply:
1. > 81
2. > 12
3. > 1.4
4. > 13
5. > 11

###

test: Metabolic stability in CD-1 mouse plasma assessed as half life at 100 uM measured upto 24 hrs by LC-MS/MS analysis; format: ADME, cell-free
Provide the recorded half-life at 100 µM for the entries that follow.

// below: answered compounds
Compound | Parameter Measured | Measured
COc1cccc(CC2NC(=O)CN(Cc3ccccc3)C2=O)c1I (stereo unspecified) | half-life at 100 µM | > 24 h
COC(=O)C(Cc1cccc(OC)c1I)NC(=O)CNCc1ccccc1 (stereo unspecified) | half-life at 100 µM | < 0.0167 h
COC(=O)C(Cc1cccc(OC)c1C)NC(=O)CNCc1ccccc1 (stereo unspecified) | half-life at 100 µM | < 0.0167 h
COc1cccc(CC2NC(=O)CN(Cc3ccccc3)C2=O)c1C (stereo unspecified) | half-life at 100 µM | > 24 h
COc1cc(CC2NC(=O)CN(Cc3ccccc3)C2=O)c(I)c(OC)c1 (stereo unspecified) | half-life at 100 µM | > 24 h

Read the next record carefully.
Task item: // query half-life at 100 µM value for entry COC(=O)C(Cc1cccc(C)c1I)NC(=O)CNCc1ccccc1 (stereo unspecified)
Reply: < 0.0167 h

###

experiment: Plasma protein binding in dog assessed as bound fraction at 1 uM by LC-MS/MS analysis; format: ADME, cell-free, Canis lupus familiaris
Provide the recorded PPB for the entries that follow.
Answers are plain numbers, in %.

// below: answered molecules
Molecule | Measured
COc1cccc(CC2NC(=O)CN(Cc3ccccc3)C2=O)c1C (stereo not given) | 86.67
COc1cccc(CC2NC(=O)CN(Cc3ccccc3)C2=O)c1I (stereo not given) | 86.15
COC(=O)C(Cc1cccc(OC)c1C)NC(=O)CNCc1ccccc1 (stereo not given) | 94.28
COC(=O)C(Cc1cccc(OC)c1I)NC(=O)CNCc1ccccc1 (stereo not given) | 97.09

Task item: // query PPB value for entry COc1cc(CC2NC(=O)CN(Cc3ccccc3)C2=O)c(I)c(OC)c1 (stereo not given)
Reply: 89.68

###

Provide the recorded PPB for the entries that follow.
experiment: Plasma protein binding in human assessed as bound fraction at 1 uM by LC-MS/MS analysis; format: ADME, cell-free
One number for each entry, in %.

// below: answered compounds
Compound | Unit Tag | PPB
COC(=O)C(Cc1cccc(OC)c1C)NC(=O)CNCc1ccccc1 (stereo unspecified) | % | 89.36
COc1cccc(CC2NC(=O)CN(Cc3ccccc3)C2=O)c1C (stereo unspecified) | % | 80.46
COc1cccc(CC2NC(=O)CN(Cc3ccccc3)C2=O)c1I (stereo unspecified) | % | 91.42
COC(=O)C(Cc1cccc(C)c1I)NC(=O)CNCc1ccccc1 (stereo unspecified) | % | 97.86

Can you give me PPB for all of these, one by one?
1. COc1cc(CC2NC(=O)CN(Cc3ccccc3)C2=O)c(I)c(OC)c1 (stereo unspecified)
2. COC(=O)C(Cc1cccc(OC)c1I)NC(=O)CNCc1ccccc1 (stereo unspecified)

Reply:
1. 95.95
2. 90.8

###

Provide the recorded Ki for the entries that follow.
molecular target: Mu-type opioid receptor (Homo sapiens, UniProt P35372)
Sequence (P35372 whole entry): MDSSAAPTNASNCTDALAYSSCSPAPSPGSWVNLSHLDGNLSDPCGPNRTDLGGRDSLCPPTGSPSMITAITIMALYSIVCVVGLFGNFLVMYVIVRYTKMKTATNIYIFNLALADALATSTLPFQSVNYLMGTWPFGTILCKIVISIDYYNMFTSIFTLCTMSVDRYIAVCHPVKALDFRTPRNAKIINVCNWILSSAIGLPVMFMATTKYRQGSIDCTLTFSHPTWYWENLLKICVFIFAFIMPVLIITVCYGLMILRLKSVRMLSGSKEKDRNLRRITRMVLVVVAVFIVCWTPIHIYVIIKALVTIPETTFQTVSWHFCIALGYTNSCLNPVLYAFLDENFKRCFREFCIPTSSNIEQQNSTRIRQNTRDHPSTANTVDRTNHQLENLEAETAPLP
Square brackets hold non-standard residues; d marks the D form. Peptide text beside a SMILES is read from it. * marks the point of attachment. ξ: configuration not given here. ξPhe(2-I) = NC(Cc1ccccc1I)C(=O)O; Nphe = O=C(O)CNCc1ccccc1; Boc = CC(C)(C)OC(=O)*

// below: answered molecules
Molecule | Measured
COc1cccc(CC2NC(=O)CNC2=O)c1I (configuration not stated) | > 10 µM
COc1cccc(CC(NC(=O)CNCc2ccccc2)C(=O)O)c1I (configuration not stated) | > 10 µM
COC(=O)C(Cc1cccc(OC)c1I)NC(=O)CN(Cc1ccccc1)C(=O)OC(C)(C)C (configuration not stated) | > 10 µM
COC(=O)C(Cc1ccccc1I)NC(=O)CN(Cc1ccccc1)C(=O)OC(C)(C)C (configuration not stated) (Boc-[Nphe]-[ξPhe(2-I)]-OMe) | 4.38 µM
COC(=O)C(Cc1cccc(OC)c1I)NC(=O)CNC(C)c1ccccc1 (configuration not stated) | > 10 µM

Can you give me Ki for all of these, one by one?
1. COc1cccc(CC2NC(=O)[C@@H]3CCCN3C2=O)c1I (some centres not stated)
2. COC(=O)C(Cc1cccc(OC)c1I)NC(=O)CN(C)C(=O)OC(C)(C)C (configuration not stated)

Reply:
1: > 10 µM; 2: > 10 µM

###

assay: Metabolic stability in Sprague-Dawley rat plasma assessed as half life at 100 uM measured upto 24 hrs by LC-MS/MS analysis; format: ADME, cell-free
Parameter Measured: half-life at 100 µM

// below: answered molecules
Molecule | half-life at 100 µM
COc1cc(CC2NC(=O)CN(Cc3ccccc3)C2=O)c(I)c(OC)c1 (stereo unspecified) | > 24 h
COc1cccc(CC2NC(=O)CN(Cc3ccccc3)C2=O)c1C (stereo unspecified) | > 24 h
COC(=O)C(Cc1cccc(OC)c1C)NC(=O)CNCc1ccccc1 (stereo unspecified) | < 0.0167 h
COc1cccc(CC2NC(=O)CN(Cc3ccccc3)C2=O)c1I (stereo unspecified) | > 24 h
COC(=O)C(Cc1cccc(OC)c1I)NC(=O)CNCc1ccccc1 (stereo unspecified) | < 0.0167 h

Read the next record carefully.
Task item: // query half-life at 100 µM value for entry COC(=O)C(Cc1cccc(C)c1I)NC(=O)CNCc1ccccc1 (stereo unspecified)
Reply: < 0.0167 h

###

assay: Metabolic stability in Beagle dog plasma assessed as half life at 100 uM measured upto 24 hrs by LC-MS/MS analysis; assay type: ADME, cell-free, Canis lupus familiaris; conditions: Beagle
Provide the recorded half-life at 100 µM for the entries that follow.

// below: answered compounds
Compound | Measured
COc1cccc(CC2NC(=O)CN(Cc3ccccc3)C2=O)c1C (stereo not drawn) | > 24 h
COc1cccc(CC2NC(=O)CN(Cc3ccccc3)C2=O)c1I (stereo not drawn) | > 24 h

Read the next record carefully.
Task item: // query half-life at 100 µM value for entry COc1cc(CC2NC(=O)CN(Cc3ccccc3)C2=O)c(I)c(OC)c1 (stereo not drawn)
Reply: > 24 h
